Molecular target: T1, EsCas13d, nuclease-dead (Eubacterium siraeum, UniProt B0MS50, R295A;H300A;R849A;H854A)
T1 sequence: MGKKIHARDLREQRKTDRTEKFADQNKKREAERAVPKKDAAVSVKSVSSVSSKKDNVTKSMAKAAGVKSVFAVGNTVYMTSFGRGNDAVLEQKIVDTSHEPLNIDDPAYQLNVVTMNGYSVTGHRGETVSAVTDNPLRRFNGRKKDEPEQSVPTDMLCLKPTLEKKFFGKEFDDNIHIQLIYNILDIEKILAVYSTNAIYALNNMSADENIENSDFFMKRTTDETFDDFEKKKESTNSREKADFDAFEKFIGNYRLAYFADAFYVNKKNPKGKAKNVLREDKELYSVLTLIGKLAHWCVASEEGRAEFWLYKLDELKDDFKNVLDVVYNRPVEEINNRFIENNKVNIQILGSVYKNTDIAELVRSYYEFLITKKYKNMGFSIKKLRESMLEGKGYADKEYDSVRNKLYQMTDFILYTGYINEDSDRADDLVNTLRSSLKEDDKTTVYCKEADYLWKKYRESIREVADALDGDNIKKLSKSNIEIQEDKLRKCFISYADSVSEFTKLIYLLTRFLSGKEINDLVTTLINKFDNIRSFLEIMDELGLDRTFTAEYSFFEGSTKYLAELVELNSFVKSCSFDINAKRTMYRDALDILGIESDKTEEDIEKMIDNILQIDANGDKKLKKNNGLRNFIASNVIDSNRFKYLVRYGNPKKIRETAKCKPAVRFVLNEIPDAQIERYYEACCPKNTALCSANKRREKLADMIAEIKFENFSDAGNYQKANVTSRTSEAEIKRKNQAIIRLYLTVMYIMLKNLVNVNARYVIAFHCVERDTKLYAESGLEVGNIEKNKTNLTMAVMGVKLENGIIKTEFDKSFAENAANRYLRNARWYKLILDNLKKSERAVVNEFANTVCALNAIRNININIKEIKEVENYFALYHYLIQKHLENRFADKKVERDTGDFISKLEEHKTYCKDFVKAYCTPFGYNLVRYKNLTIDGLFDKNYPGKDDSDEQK
Test: crRNA (strand 1, pre-loaded); Mg2+; 40 mM Tris-HCl pH 7.5, 150 mM NaCl, 6 mM MgCl2, 1 mM DTT, 0.1% Tween-20, 0.2 mg/ml BSA; 25 C; 10 min per concentration, then washed
Details: tags: His6-TwinStrep-SUMO cleaved; N-terminal SNAP kept (SNAP-Surface 488); label: 3' end held by stalled T7 RNA polymerase
ENDPOINT LABEL: pKd
Here pKd is given on a logarithmic scale as minus log10 of the concentration in mol/L.

Which pKd reading was recorded for the binder target 1 insA 3' of 11,insA 3' of 3 (mixed) RNA 1: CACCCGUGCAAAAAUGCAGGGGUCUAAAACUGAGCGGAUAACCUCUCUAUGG RNA 2: GGGAAUGGAUCCACAUCUACGAAUUCGUACCAUAGAGAGGUAUAUCCGCUACACCGAGAUCGGAAGAGCACACGU ?
7.85

Another: target 1 MT 5'PFS AUA 3'PFS UUG (mixed) RNA 1: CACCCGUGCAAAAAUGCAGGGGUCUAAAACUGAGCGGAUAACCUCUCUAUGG RNA 2: GGGAAUGGAUCCACAUCUACGAAUUCAUACCAUAGAGAGGUUAUCCGCUCAUUGAGAUCGGAAGAGCACACGU
7.96
